# assay explanation: viability loss with induced miR-34 in A549 – imaging, A549 dox-inducible miR-34, nuclei and caspase counts, primary screen (AID 1347080)
# stated conditions: A549 miR-34 inducible, Hoechst nuclei count, 48 h; measured here: total cells without miR-34 induction
Where a SMILES comes first, the peptide text is derived from it.
Record form. Attribute: cell count. Fill in for each entry.
Answers are plain numbers.

compound: COc1cccc(OC)c1-c1ccc(C(=O)Nc2cccnc2)o1
cell count: 8880
//
compound: C=CC1=C(C(=O)O)N2C(=O)[C@H](NC(=O)C(=NO)c3csc(N)n3)[C@H]2SC1
cell count: 8790
//
compound: COC(=O)C(Cc1ccccc1)NC(=O)C(N)CC(=O)O (stereo not drawn) (H-Asp-Phe-OMe; configuration not given here)
cell count: 8770

Could you now look at the following compound, please?
Task item: Param item = `O=C1CN(c2ncnc3nc[nH]c23)CCN1CCc1ccccc1` ; retrieve measured cell count.
Reply: 9080

----------
Please go through the items and note down their period change.
# assay explanation: compounds altering circadian rhythm period length – cell-based, LOPAC library, luminescence reporter (AID 2774);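 also: values are relative to mean of DMSO wells on each plate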
# stated conditions: circadian reporter cells, at 7 µM, actives lie on both sides
The source made the active and inactive calls. The rule behind the calls is not given here.

Here's what some known entries look like.
compound: CC(N)=NCCC[C@H](N)C(=O)O
parameter measured: period change
endpoint result: 0.025 h (inactive)
--
compound: CC1=C(C(=O)O)N2C(=O)[C@@H](NC(=O)C(N)C3=CCC=CC3)[C@H]2SC1 (stereo not given in full)
parameter measured: period change
endpoint result: -0.045 h (inactive)

Dear reader, for each entry below, please note its period change.
1. O=C(O)CCCC[C@@H]1CCSS1
2. Cn1c(=O)c2[nH]c(-c3ccc(S(=O)(=O)O)cc3)nc2n(C)c1=O

Reply:
1. 0.11 h (inactive)
2. -0.005 h (inactive)

----------
# assay explanation: MELAS cybrid and Rieske KO viability enhancers – cell-based, MELAS cybrids, Rieske KO mouse fibroblasts, CellTiter-Glo, primary screen (AID 1508586);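 also: z relative to plate mean and SD of compound and empty wells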
# stated conditions: MELAS cybrid survival, low glucose, CellTiter-Glo 48 h; stronger effect = higher value
For each record, write down the corresponding z-score.
Answers are plain numbers.

Below, each entry is followed by its recorded z-score result.
compound: CCOC(=O)c1c(C)nn(-c2ccc(N)cc2)c1C
z-score: -0.251
//
compound: CC(C)C[C@H]1C(=O)N2CCC[C@H]2[C@]2(O)O[C@](NC(=O)[C@@H]3C=C4c5cccc6[nH]c(Br)c(c56)CC4N(C)C3)(C(C)C)C(=O)N12 (stereo partly drawn)
z-score: -0.909
//
compound: CC(C=CC(=O)NO)=CC(C)C(=O)c1ccc(N(C)C)cc1 (stereo not drawn)
z-score: -0.131
//
compound: OC(c1cc(C(F)(F)F)nc2c(C(F)(F)F)cccc12)[C@H]1CCCCN1 (stereo partly drawn)
z-score: 0.101
//
compound: O=C(C=Cc1ccccc1)NC(NC(=S)Nc1cccc2cccnc12)C(Cl)(Cl)Cl (stereo not drawn)
z-score: -0.276

Please give z-score, item by item, for the list that follows.
1. O=C1CCCc2occ(C(=O)N3CC(=O)N(Cc4ccccc4)CC(OCc4ccccn4)C3)c21 (stereo not drawn)
2. Cc1[nH]c(C=C2C(=O)Nc3ccc(S(=O)(=O)N(C)c4cccc(Cl)c4)cc32)c(C)c1C(=O)N1CCN(C)CC1

Reply:
[-0.412, -0.734]

Hey, can you go through the list below and give me z-score for every item?
1. CC#CCC(C)[C@H](O)/C=C/[C@@H]1[C@H]2C/C(=C/CCCC(=O)O)C[C@H]2C[C@H]1O (stereo partly drawn)
2. CON=C(C(=O)NC1C(=O)N2C(C(=O)OCOC(=O)C(C)(C)C)=C(C=Cc3scnc3C)CS[C@H]12)c1csc(N)n1 (stereo partly drawn)
3. CCOC1OC(=O)CC1NC(=O)C1CCCN1C(=O)C(NC(=O)c1ccc(N)c(Cl)c1)C(C)(C)C (stereo not drawn)
4. O=C(O)c1ccc(-c2ccccc2[N+](=O)[O-])o1
5. CC(=O)OCC(=O)[C@]12OC(C)(C)OC1C[C@H]1[C@@H]3CC(F)C4=CC(=O)C=C[C@]4(C)[C@]3(F)C(O)C[C@@]12C (stereo partly drawn)
6. Cc1ccc(C(=O)N(CCCN)C(c2nc3cc(Cl)ccc3c(=O)n2Cc2ccccc2)C(C)C)cc1 (stereo not drawn)
7. c1ccc(CN2CCC(Nc3ncnc4sccc34)CC2)nc1

Reply:
1. -0.239
2. -0.26
3. -0.153
4. -0.508
5. -0.325
6. 0.859
7. -0.277

Each compound below has a reported value. Please supply its z-score.
1. Cc1ccnn1CCC(=O)N1CCc2c(cc(Cc3ccccc3F)c(=O)n2Cc2cccnc2)C1
2. CC1(C)C=C(CN2CC(=Cc3ccc(F)cc3)C(=O)C(=Cc3ccc(F)cc3)C2)C(C)(C)N1O
3. CC1CC[C@]2(C(=O)O)CC[C@]3(C)C(=CC[C@H]4[C@@]5(C)CC(O)C(O)[C@@](C)(CO)[C@@H]5CC[C@]43C)[C@H]2C1C (stereo partly drawn)
4. Cc1ccc(S(=O)(=O)N2CCN3C(=O)[C@H](Cc4ccc(Cl)cc4)NC(=O)[C@H]3C2)cc1
5. CNc1ccnc(-c2cnn(CC(=O)Nc3cc(C)nn3C)c2)n1

Reply:
1. -0.36
2. -0.493
3. -0.312
4. 1.43
5. -0.389

For each of the compounds below, note its z-score.
1. CCn1cnc(NC(=O)N(C)Cc2cccc3ncccc23)n1
2. CCCOc1ccc(CC(=O)O)cc1Cl
3. Cc1ccc2c(c1)N(Cc1nc(C(C)(C)C)no1)C(=O)CO2

Reply:
-0.163
0.699
-0.543

Could I get z-score for every one of these entries?
1. COc1cc(CC2COC(=O)C2Cc2ccc(O)c(OC)c2)ccc1O (stereo not drawn)
2. Cc1onc(-c2ccccc2Cl)c1C(=O)NC1C(=O)N2C(C(=O)O)C(C)(C)S[C@@H]12 (stereo partly drawn)
3. Cc1noc(C)c1CC(=O)N1CCc2c(c(C(=O)N3CCOCC3)nn2CCCc2ccccc2)C1
4. Cc1cc(-c2cccc(OC(C)C)c2)nc(N)n1
5. CC1OC(O)C(O)C(O)C1O (stereo not drawn)
6. COc1ccccc1-c1cc(Nc2cccc(CS(N)(=O)=O)c2)ncn1

Reply:
-1.09
-0.365
0.975
-1.21
-0.0523
-0.3

----------
# assay explanation: viability loss with induced miR-34 in A549 – imaging, A549 dox-inducible miR-34, nuclei and caspase counts, primary screen (AID 1347080)
# stated conditions: A549 miR-34 inducible, Hoechst nuclei count, 48 h; stronger effect = lower value; cell number ratio, induced over uninduced
Kindly state fold change for each of the entries shown.
Numbers only.

Here's what some known entries look like.
compound: Cc1nsc(NC(=O)N(C)Cc2cn[nH]c2-c2ccc(F)cc2)n1
endpoint result: 0.916

compound: CCOC(=O)C1OC1C(=O)NC(CC(C)C)C(=O)NCCC(C)C (stereo unspecified)
endpoint result: 0.903

compound: CO[C@H]1O[C@@H]2O[C@]3(C)CC[C@@H]4[C@@H](C)CC[C@H]([C@H]1C)[C@]24OO3
endpoint result: 0.984

compound: COc1ccc2[nH]cc(CCC(=O)O)c2c1
endpoint result: 0.879

compound: O=C1CN(c2ncnc3sccc23)CCN1C1CCCC1
endpoint result: 0.857

Each compound below has a recorded value; state its fold change.
1. CCCCN(Cc1ccc(C(=O)NO)cc1)C(=O)Nc1ccccc1
2. CCOc1cc(C(CS(C)(=O)=O)N2C(=O)c3cccc(NC(C)=O)c3C2=O)ccc1OC (stereo unspecified)
3. CN1CCN(Cc2ccc3sccc3c2)CC1CCO (stereo unspecified)

Reply:
0.983
0.919
0.86

----------
# assay explanation: MELAS cybrid and Rieske KO viability enhancers – cell-based, MELAS cybrids, Rieske KO mouse fibroblasts, CellTiter-Glo, primary screen (AID 1508586);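 also: z relative to plate mean and SD of compound and empty wells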
# stated conditions: Rieske KO mouse fibroblast survival, low glucose, CellTiter-Glo 72 h
In plain terms, low z-score, meaning strictly below -0.2, gives class 1, and everything else gives class 0.

Solved entries:
compound: COc1cccc2c1C(=O)c1c(O)c3c(c(O)c1C2=O)C[C@@](O)(C(C)=O)CC3O[C@H]1CC(N)C(O)C(C)O1 (stereo not given in full)
class assignment: class 1
--
compound: CN=C(NC)NCc1ccccc1
class assignment: class 1
--
compound: CN(C)C(=O)Nc1cccc(-c2ccc(N(C)C)cc2)c1
class assignment: class 1
--
compound: Cn1c(=O)c(O)c(O)c2ccccc21
class assignment: class 1

Task item: Would you kindly verify if z-score of Brc1ccc(C2CN3CCSC3=N2)cc1 (stereo not given) is strictly less than -0.2?
Reply: class 0

Task item: Decide: z-score of `CN(CC(=O)N(Cc1ccc(C2CCCCC2)cc1)c1ccc(C(=O)O)cc1)S(=O)(=O)c1c(F)c(F)c(F)c(F)c1F` strictly below -0.2?
Reply: class 0

Task item: Hi there! Is z-score for CC1CS(=O)(=O)CCN1N=Cc1ccc([N+](=O)[O-])o1 (stereo not given) below -0.2, do you know?
Reply: class 1

Task item: Strictly below -0.2: is that where z-score of `C[C@@H]1COc2c(N3CCN(C)CC3)c(F)cc3c(=O)c(C(=O)O)cn1c23` sits?
Reply: class 0

Task item: Bench note: check whether CC(NC(=O)C(Cc1ccccc1)NC(=O)OCc1ccccc1)C(=O)CF (stereo not given) shows z-score below -0.2
Reply: class 1
